- study_system: AhR (Homo sapiens, UniProt P35869)
- Sequence (P35869 11-848): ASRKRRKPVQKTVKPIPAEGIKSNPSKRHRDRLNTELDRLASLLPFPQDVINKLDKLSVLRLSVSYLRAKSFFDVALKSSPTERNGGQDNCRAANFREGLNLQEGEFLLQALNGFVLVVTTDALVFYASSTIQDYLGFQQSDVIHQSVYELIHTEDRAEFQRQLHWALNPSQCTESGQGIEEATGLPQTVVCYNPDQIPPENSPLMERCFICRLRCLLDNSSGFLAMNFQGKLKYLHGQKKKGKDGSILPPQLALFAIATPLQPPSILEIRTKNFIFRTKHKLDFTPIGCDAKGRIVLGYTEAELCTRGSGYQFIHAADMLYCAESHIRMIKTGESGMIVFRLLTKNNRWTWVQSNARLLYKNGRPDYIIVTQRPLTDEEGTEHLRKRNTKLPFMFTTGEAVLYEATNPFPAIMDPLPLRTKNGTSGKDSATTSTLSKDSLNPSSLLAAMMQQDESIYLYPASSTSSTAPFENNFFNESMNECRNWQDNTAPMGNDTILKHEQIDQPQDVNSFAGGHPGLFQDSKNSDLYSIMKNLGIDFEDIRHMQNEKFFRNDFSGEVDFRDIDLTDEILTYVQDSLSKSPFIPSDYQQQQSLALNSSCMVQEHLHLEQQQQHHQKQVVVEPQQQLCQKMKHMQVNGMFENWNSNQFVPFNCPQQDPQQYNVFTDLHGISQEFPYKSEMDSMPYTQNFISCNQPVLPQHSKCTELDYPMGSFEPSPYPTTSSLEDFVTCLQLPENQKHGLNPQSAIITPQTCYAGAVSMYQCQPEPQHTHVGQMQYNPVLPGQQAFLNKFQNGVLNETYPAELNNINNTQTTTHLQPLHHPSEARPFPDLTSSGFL
- method_notes: In Vitro Assay 1: XRE-luciferase reporter assay, antagonism in human cell line (HepG2)
- condition_parameters: Assay 1: AhR-Luc Human Antagonism (IC50, nM), unmarked values: kynurenine 200 μM, 6 hours
Listing: IC50 of selected molecules

Past entries and their recorded results:
1) OC[C@H]1CN(c2cc(-c3ccc(C(F)(F)F)cc3)nc(-c3cccnc3)n2)C[C@@H]1O ... < 10 nM
2) OCC1CCN(c2cc(-c3cncc(F)c3)nc(-c3cccnc3)n2)CC1 ... 100 to 1000 nM
3) Cn1cc(-c2nc(-c3ccc(N4CCOCC4)cc3)cc(N3CCC(CO)CC3)n2)cn1 ... 100 to 1000 nM
4) Oc1cc(Cl)ccc1-c1cc(N2CC[C@H](O)C2)nc(-c2cccnc2O)n1 ... < 10 nM
5) OC1CCCCN(c2cc(-c3ccc(Cl)cc3)nc(-c3cccnc3)n2)C1 (centres unmarked) ... 100 to 1000 nM

### Prompt Need IC50 of "OCC1CCN(c2cc(-c3ccc(OC(F)(F)F)cc3)nc(-c3cccnc3)n2)CC1" , thanks.
### Response 10 to 100 nM

### Prompt Repeat for the following molecule: CC(O)C(=O)NC1CCN(c2cc(-c3ccc(Cl)cc3)nc(-c3cccnc3)n2)CC1 (centres unmarked)
### Response 10 to 100 nM

### Prompt Repeat with "OC[C@H]1CCN(c2cc(-c3ccc(C(F)(F)F)cc3)nc(-c3cccnc3)n2)C[C@H]1F"
### Response < 10 nM

----------
- study_system: AhR (Homo sapiens)
- method_notes: In Vitro Assay 1: XRE-luciferase reporter assay, antagonism in human cell line (HepG2)
- condition_parameters: Assay 1: AhR-Luc Human Antagonism (IC50, nM), unmarked values: kynurenine 200 μM, 6 hours
measured_parameter: IC50

1. Nc1cc(-c2cc(N3CC[C@H](O)C3)nc(-c3cccnc3)n2)ccc1N1CCOCC1 ... 10 to 100 nM
2. OC[C@@H]1CCN(c2cc(-c3ccc(Cl)cc3)nc(-c3cccnc3)n2)C[C@@H]1O ... 10 to 100 nM

### Prompt Looking for the measured IC50 of "O[C@H]1CCN(c2cc(-c3ccc(C(F)(F)F)cc3)nc(-c3cncc(F)c3)n2)C1" , can you help?
### Response < 10 nM

----------
- study_system: AhR (Homo sapiens, UniProt P35869)
- method_notes: In Vitro Assay 1: XRE-luciferase reporter assay, antagonism in human cell line (HepG2)
- condition_parameters: Assay 1: AhR-Luc Human Antagonism (IC50, nM), unmarked values: kynurenine 200 μM, 6 hours
measured_parameter: IC50

Recorded IC50, per entry:
1. OCC[C@H]1CN(c2cc(-c3ccc(Cl)cc3)nc(-c3cccnc3)n2)CCN1 ... 100 to 1000 nM
2. Oc1ncccc1-c1cc(N2CC[C@H](O)C2)nc(-c2cccnc2)n1 ... > 1000 nM
3. OC[C@@H]1CN(c2cc(-c3ccc(C(F)(F)F)cc3)nc(-c3cccnc3)n2)CCO1 ... < 10 nM
4. CN(C)CCOc1ccc(-c2cc(N3CC[C@H](O)C3)nc(-c3cccnc3)n2)cc1 ... > 1000 nM
5. CN(C)C1CN(c2cc(-c3ccc(Cl)cc3)nc(-c3cccnc3)n2)CCC1O (centres unmarked) ... > 1000 nM
6. O[C@H]1CCN(c2cc(-c3ccc(Cl)cc3)nc(-c3ccncc3)n2)C1 ... > 1000 nM
7. OC[C@H]1CCN(c2cc(-c3ccc(C(F)(F)F)cc3)nc(-c3cccnc3)n2)C[C@H]1O ... 10 to 100 nM
8. OCC1CCN(c2cc(-c3ccc(Cl)cc3O)nc(-c3cccnc3)n2)CC1 ... < 10 nM
9. O[C@H]1CCN(c2cc(-c3ccc(Cl)cc3)nc(-c3cccnc3)n2)C1 ... < 10 nM
10. O[C@H]1CCN(c2cc(-c3ccc(Cl)cc3)nc(-c3cncc(F)c3)n2)C1 ... < 10 nM

### Prompt What measured IC50 goes with "Cc1ncccc1-c1nc(-c2ccc(C(F)(F)F)cc2)cc(N2CC[C@H](O)C2)n1" ?
### Response < 10 nM

### Prompt // repeat for "CN1CCN(c2ccc(-c3cc(N4CCC(CO)CC4)nc(-c4cccnc4)n3)cc2)CC1" and report
### Response 10 to 100 nM

### Prompt Follow-up item: "OCC1CCN(c2cc(-c3c(F)cc(F)cc3F)nc(-c3cccnc3)n2)CC1"
### Response 100 to 1000 nM

### Prompt Do the same for "Oc1cccc(-c2nc(-c3ccc(Cl)cc3)cc(N3CC[C@H](O)C3)n2)c1" please
### Response > 1000 nM

### Prompt Another: "Cn1cc(-c2nc(-c3ccc(C(F)(F)F)cc3)cc(N3CCN(S(=O)(=O)CCO)CC3)n2)cn1"
### Response 10 to 100 nM

### Prompt Consider next the compound "OCC1CCN(c2cc(-c3ccc(Cl)c(F)c3)nc(-c3cccnc3)n2)CC1" in the same way.
### Response < 10 nM

### Prompt # iterate: "OC[C@H]1CCN(c2cc(-c3ccc(Cl)cc3)nc(-c3cccnc3)n2)C[C@@H]1O"
### Response < 10 nM
